molecular target: hCB1 (Homo sapiens, UniProt P21554); experiment: bioSensAll ebBRET signaling profiling, hCB1; format: cell-based; parameters: host or cells: HEK293SL cells, transient PEI transfection; conditions: Log [Compound] (M) -11.9208; single replicate values, FigS6a
Sequence (P21554 whole entry): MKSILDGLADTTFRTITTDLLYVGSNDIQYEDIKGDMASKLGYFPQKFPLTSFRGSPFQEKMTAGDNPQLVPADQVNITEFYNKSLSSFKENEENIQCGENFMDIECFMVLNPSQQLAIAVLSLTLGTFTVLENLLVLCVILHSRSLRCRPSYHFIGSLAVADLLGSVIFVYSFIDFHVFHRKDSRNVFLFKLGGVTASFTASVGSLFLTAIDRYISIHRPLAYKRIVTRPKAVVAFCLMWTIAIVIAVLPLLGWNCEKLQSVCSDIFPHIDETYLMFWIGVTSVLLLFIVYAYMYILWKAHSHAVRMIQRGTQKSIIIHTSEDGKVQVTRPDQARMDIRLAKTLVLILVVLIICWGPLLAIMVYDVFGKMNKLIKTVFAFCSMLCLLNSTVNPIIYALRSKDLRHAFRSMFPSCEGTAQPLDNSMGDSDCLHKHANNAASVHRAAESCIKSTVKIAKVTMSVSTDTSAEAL
Kindly apply the following: y if GoB hCB1 is less than -0.06, n in every other case.

Req: Is GoB hCB1 of Cn1nc(-c2nnc(C(C)(C)Oc3ccc(C(F)(F)F)cc3)o2)c2ccccc2c1=O [‘2153] strictly below -0.06?
Resp: y

Req: Check Cc1cc(C(=O)N(C)C(c2ccco2)c2ccco2)nn1-c1cccc(C(F)(F)F)c1 [‘4388] too.
Resp: y

Req: Check Cc1cc(C(=O)N2CC3(CCC3)[C@@H]2[C@@H]2CCCO2)nn1-c1cccc(C(F)(F)F)c1 [‘3386] too.
Resp: n

Req: Check Cc1cc(C(=O)N2CC3(CCC3)[C@H]2[C@@H]2CCCO2)nn1-c1cccc(C(F)(F)F)c1 [‘5490] too.
Resp: n

Req: Check COC(=O)[C@@H]1[C@@H]2CCC[C@@H]2CN1C(=O)c1cc(C)n(-c2cccc(Cl)c2)n1 (racemic) [‘10010] too.
Resp: y

----------
Give GoB hCB1 for every item shown.
biological target: hCB1 (Homo sapiens); test: bioSensAll ebBRET signaling profiling, hCB1; assay type: cell-based; parameters: host or cells: HEK293SL cells, transient PEI transfection; conditions: Log [Compound] (M) -4.22186; single replicate values, FigS6a
// return a plain number; no unit text

Req: # returns recorded GoB hCB1 (system: hCB1 (Homo sapiens)) for Cn1nc(-c2nnc(C(C)(C)Oc3ccc(Cl)cc3)o2)c2ccccc2c1=O [‘0450]
Resp: 28.3973

Req: Check Cc1cc(C(=O)N2CC3(CCC3)[C@H]2[C@@H]2CCCO2)nn1-c1cccc(C(F)(F)F)c1 [‘5490] too.
Resp: 96.1825

Req: Check Brc1cc2c(cc1Cc1noc(-c3cnn(CC4CC4)c3)n1)OCO2 [‘5424] too.
Resp: -17.0204

Req: Check COC(=O)[C@@H]1[C@@H]2CC[C@@H]2CN1C(=O)c1cc(C)n(-c2cccc(C(F)(F)F)c2)n1 [‘6448] too.
Resp: 86.7412

Req: Check Cn1nc(-c2nnc(C(C)(C)Oc3ccc(C(F)(F)F)cc3)o2)c2ccccc2c1=O [‘2153] too.
Resp: 87.0618

Req: Check Cc1cc(C(=O)N(C)C(c2ccccc2)c2ccco2)nn1-c1cccc(C(F)(F)F)c1 (centres unmarked) [‘1082] too.
Resp: -31.4993

Req: Check Cc1c(C(=O)OCC2CSc3ccccc3O2)cnn1Cc1ccccc1 (centres unmarked) [‘7800] too.
Resp: 18.8832

Req: Check Cc1cc(C(=O)N2CC3(CCC3)[C@H]2[C@H]2CCCO2)nn1-c1cccc(C(F)(F)F)c1 [‘1651] too.
Resp: 103.232

Req: Check COC(=O)C(NC(=O)c1cc(C)n(-c2cccc(C(F)(F)F)c2)n1)c1cccs1 (centres unmarked) [‘60154] too.
Resp: 92.7297

Req: Check Cc1cc(C(=O)N2CC3(CCC3)[C@@H]2[C@@H]2CCCO2)nn1-c1cccc(C(F)(F)F)c1 [‘3386] too.
Resp: -7.725

Req: Check COc1cccc(C(NC(=O)c2cc(C)n(-c3cccc(C(F)(F)F)c3)n2)c2ccco2)c1 (centres unmarked) [‘1087] too.
Resp: -8.4986

Req: Check COC(=O)C(NC(=O)c1cc(C)n(-c2cccc(F)c2)n1)c1cccs1 (centres unmarked) [‘51486] too.
Resp: 69.3873

Req: Check Cc1cc(C(=O)N2CC3(CCC3)[C@@H]2[C@H]2CCCO2)nn1-c1cccc(C(F)(F)F)c1 (single isomer, unassigned) [compound 430] too.
Resp: 6.14

Req: Check Cc1cc(C(=O)NC(c2ccco2)c2ccco2)nn1-c1cccc(C(F)(F)F)c1 [‘1090] too.
Resp: 92.9275

----------
biological target: hCB2 (Homo sapiens, UniProt P34972); experiment: bioSensAll ebBRET signaling profiling, hCB2; type: cell-based; parameters: host or cells: HEK293SL cells, transient PEI transfection; conditions: read-out: EC50 [95% CI]; hCB2 Gz
Sequence (P34972 whole entry): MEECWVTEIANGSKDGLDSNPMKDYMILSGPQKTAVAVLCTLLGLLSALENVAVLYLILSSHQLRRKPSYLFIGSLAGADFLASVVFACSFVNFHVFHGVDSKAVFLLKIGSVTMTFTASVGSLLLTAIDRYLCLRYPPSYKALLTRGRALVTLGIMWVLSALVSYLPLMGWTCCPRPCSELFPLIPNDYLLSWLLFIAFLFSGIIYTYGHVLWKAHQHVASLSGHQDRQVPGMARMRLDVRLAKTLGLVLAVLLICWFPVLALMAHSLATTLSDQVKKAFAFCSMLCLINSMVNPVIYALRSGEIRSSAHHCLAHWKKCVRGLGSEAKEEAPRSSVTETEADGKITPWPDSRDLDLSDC
Property Measured: EC50 (nM)
Answer format: numeric, nM implied, no suffix.

Req: Sample COC(=O)[C@@](C)(NC(=O)c1cc(C)n(-c2cccc(C(F)(F)F)c2)n1)c1cccs1 — what was its EC50?
Resp: 2.6

----------
Give rep2_displacement for every item shown.
molecular target: CB1 (rCB1) (Rattus norvegicus); assay: Single-point radioligand displacement screen; type: binding; conditions: Figure 1c source data, replicate 2
Sequence (P20272 whole entry): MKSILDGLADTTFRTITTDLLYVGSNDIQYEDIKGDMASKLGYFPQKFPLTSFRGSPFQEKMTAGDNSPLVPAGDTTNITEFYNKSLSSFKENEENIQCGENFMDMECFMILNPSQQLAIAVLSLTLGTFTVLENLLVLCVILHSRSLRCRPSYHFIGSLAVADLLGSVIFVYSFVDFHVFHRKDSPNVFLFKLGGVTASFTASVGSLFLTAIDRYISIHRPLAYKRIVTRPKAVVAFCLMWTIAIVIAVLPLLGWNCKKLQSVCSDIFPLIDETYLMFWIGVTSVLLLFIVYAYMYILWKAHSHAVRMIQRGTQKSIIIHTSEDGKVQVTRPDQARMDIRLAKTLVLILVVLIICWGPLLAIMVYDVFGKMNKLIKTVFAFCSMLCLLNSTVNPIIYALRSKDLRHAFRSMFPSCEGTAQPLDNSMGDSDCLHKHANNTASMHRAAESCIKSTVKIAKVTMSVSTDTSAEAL

Req: Sample Cc1nc(CC2CC2)oc1-c1nc(Cc2cc3c(cc2Br)OCO3)no1 — what was its rep2_displacement?
Resp: 70.3

Req: Check CCc1nc(C(=O)NC(c2ccccc2)c2cccnc2)nn1-c1ccccc1Cl (centres unmarked) too.
Resp: 19.7

Req: Check COc1ccc(Cl)c(-c2cc(C(=O)N3CCOC[C@@H]3CC(C)C)on2)c1 too.
Resp: 14.5

Req: Check COC(=O)c1cc(C(=O)N2CCc3ccc(Cl)cc3C2)cc([N+](=O)[O-])c1 too.
Resp: 24.6

Req: Check CC1OCCC12CN(C(=O)c1oc3ccccc3c1COc1ccccc1)CCO2 (centres unmarked) too.
Resp: 46.3

Req: Check CC(Oc1ccccc1)c1noc(-c2ccc(=O)n(-c3ccc(F)cc3)n2)n1 (centres unmarked) too.
Resp: 13.3

Req: Check CN(C)c1cc(-c2nc(Cc3ccc4c(c3)OCCO4)no2)c2ccccc2n1 too.
Resp: 44.2

Req: Check Cc1onc(-c2ccccc2)c1C(=O)OCc1cn2cc(Cl)ccc2n1 too.
Resp: 49.2

----------
Give Gi1 hCB1 for every item shown.
biological target: hCB1 (Homo sapiens, UniProt P21554); experiment: bioSensAll ebBRET signaling profiling, hCB1; assay type: cell-based; parameters: host or cells: HEK293SL cells, transient PEI transfection; conditions: Log [Compound] (M) -9.61989; single replicate values, FigS6a

Req: Sample Cc1cc(C(=O)N2CC3(CCC3)[C@@H]2[C@H]2CCCO2)nn1-c1cccc(C(F)(F)F)c1 (single isomer, unassigned) [compound 430] — what was its Gi1 hCB1?
Resp: 2.463

Req: Check COC(=O)[C@@H]1[C@@H]2CCC[C@@H]2CN1C(=O)c1cc(C)n(-c2cccc(C(F)(F)F)c2)n1 [‘6439] too.
Resp: 0.2894

Req: Check Brc1cc2c(cc1Cc1noc(-c3cnn(CC4CC4)c3)n1)OCO2 [‘5424] too.
Resp: -0.3926

Req: Check Cc1cc(C(=O)NC(c2ccccc2)c2ccco2)nn1-c1cccc(C(F)(F)F)c1 (centres unmarked) [‘1081] too.
Resp: 1.492

Req: Check Cc1cc(C(=O)NC(c2ccco2)c2ccco2)nn1-c1cccc(C(F)(F)F)c1 [‘1090] too.
Resp: 1.785

Req: Check Cc1cc(C(=O)N(C)C(c2ccccc2)c2ccco2)nn1-c1cccc(C(F)(F)F)c1 (centres unmarked) [‘1082] too.
Resp: -0.04972

Req: Check Cc1cc(C(=O)N2CC3(CCC3)[C@H]2[C@@H]2CCCO2)nn1-c1cccc(C(F)(F)F)c1 [‘5490] too.
Resp: 1.014

Req: Check Cc1cc(C(=O)NC(c2ccccc2)c2ccco2)nn1-c1cccc(C#N)c1 (centres unmarked) [‘12565] too.
Resp: -1.406

Req: Check Cn1nc(-c2nnc(C(C)(C)Oc3ccc(Cl)cc3)o2)c2ccccc2c1=O [‘0450] too.
Resp: -4.621

Req: Check CC(=O)C(c1cccs1)N(C)C(=O)c1cc(C)n(-c2cccc(C(F)(F)F)c2)n1 (centres unmarked) [‘6829] too.
Resp: 0.7057

Req: Check COc1cccc(C(NC(=O)c2cc(C)n(-c3cccc(C(F)(F)F)c3)n2)c2ccco2)c1 (centres unmarked) [‘1087] too.
Resp: 1.8311

Req: Check COC(=O)[C@@H]1[C@@H]2CC[C@@H]2CN1C(=O)c1cc(C)n(-c2cccc(C(F)(F)F)c2)n1 [‘6448] too.
Resp: 0.7519

Req: Check Cc1cc(C(=O)N2CC3(CCC3)[C@@H]2[C@@H]2CCCO2)nn1-c1cccc(C(F)(F)F)c1 [‘3386] too.
Resp: 1.816

Req: Check COC(=O)C(NC(=O)c1cc(C)n(-c2cccc(C(F)(F)F)c2)n1)c1cccs1 (centres unmarked) [‘60154] too.
Resp: 0.08902

Req: Check Cc1cc(C(=O)N(C)C(c2ccco2)c2ccco2)nn1-c1cccc(C(F)(F)F)c1 [‘4388] too.
Resp: 0.08902

Req: Check COC(=O)C(NC(=O)c1cc(C)n(-c2cccc(F)c2)n1)c1cccs1 (centres unmarked) [‘51486] too.
Resp: 0.5515

Req: Check Cn1nc(-c2nnc(C(C)(C)Oc3ccc(C(F)(F)F)cc3)o2)c2ccccc2c1=O [‘2153] too.
Resp: -4.051
